Where do the numbers come from? From ChEMBL document CHEMBL3045835.

Test system: Aspergillus niger
Protocol Details: Antifungal activity against Aspergillus niger MTCC 2546 at 200 ug/ml after 18 hr by cup-plate method
Type: functional
Conditions Used: MTCC 2546, 18 h, read-out: DIZ

Query Smiles: C(=N\c1nc[nH]n1)/c1cccs1
Reading Unit: mm
zone of inhibition at 200 µg/mL: 13

Query Smiles: O=c1c(/C=N/c2ccc(Cl)cc2)coc2ccccc12
Reading Unit: mm
zone of inhibition at 200 µg/mL: 18

Query Smiles: Cc1cc(/N=C/c2cccc3ccccc23)no1
Reading Unit: mm
zone of inhibition at 200 µg/mL: 18

Query Smiles: Clc1ccc(/N=C/c2cccs2)cc1
Reading Unit: mm
zone of inhibition at 200 µg/mL: 11

Query Smiles: C(=N\c1nc[nH]n1)/c1ccco1
Reading Unit: mm
zone of inhibition at 200 µg/mL: 16

Query Smiles: Cc1cccnc1/N=C/c1cccc2ccccc12
Reading Unit: mm
zone of inhibition at 200 µg/mL: 16

Query Smiles: O=c1c(/C=N/c2nc[nH]n2)coc2ccccc12
Reading Unit: mm
zone of inhibition at 200 µg/mL: 18

Query Smiles: C(=N/c1nc[nH]n1)/c1cccc2ccccc12
Reading Unit: mm
zone of inhibition at 200 µg/mL: 17

====

Test system: Micrococcus luteus
Protocol Details: Antibacterial activity against Micrococcus luteus MTCC 1538 at 100 ug/ml after 18 hr by cup-plate method
Assay type: functional
Conditions Used: MTCC 1538, 18 h, read-out: DIZ

Query Smiles: Clc1ccc(/N=C\c2cccc3ccccc23)cc1
Test System: Micrococcus luteus
zone of inhibition at 100 µg/mL (mm): 13
--
Query Smiles: Clc1ccc(/N=C/c2cccs2)cc1
Test System: Micrococcus luteus
zone of inhibition at 100 µg/mL (mm): 11
--
Query Smiles: C(=N/c1nc[nH]n1)/c1cccc2ccccc12
Test System: Micrococcus luteus
zone of inhibition at 100 µg/mL (mm): 12
--
Query Smiles: CCn1cc(C(=O)O)c(=O)c2cc(F)c(N3CCNCC3)cc21
Test System: Micrococcus luteus
zone of inhibition at 100 µg/mL (mm): 26

====

System: Bacillus pumilus
Protocol Details: Antibacterial activity against Bacillus pumilus MTCC 1456 at 200 ug/ml after 18 hr by cup-plate method
Type: functional
Conditions Used: MTCC 1456, 18 h, read-out: DIZ

Query Smiles: C(=N\c1nc[nH]n1)/c1ccco1
zone of inhibition at 200 µg/mL [mm]: 15
--
Query Smiles: Cc1cccnc1/N=C/c1cccc2ccccc12
zone of inhibition at 200 µg/mL [mm]: 16
--
Query Smiles: Clc1ccc(/N=C/c2cccs2)cc1
zone of inhibition at 200 µg/mL [mm]: 15
--
Query Smiles: O=c1c(/C=N/c2nc[nH]n2)coc2ccccc12
zone of inhibition at 200 µg/mL [mm]: 16
--
Query Smiles: C(=N\c1nc[nH]n1)/c1cccs1
zone of inhibition at 200 µg/mL [mm]: 15
--
Query Smiles: C(=N/c1nc[nH]n1)/c1cccc2ccccc12
zone of inhibition at 200 µg/mL [mm]: 16
--
Query Smiles: O=c1c(/C=N/c2ccc(Cl)cc2)coc2ccccc12
zone of inhibition at 200 µg/mL [mm]: 15
--
Query Smiles: Cc1cc(/N=C/c2cccc3ccccc23)no1
zone of inhibition at 200 µg/mL [mm]: 15

====

Test system: Penicillium chrysogenum
Protocol Details: Antifungal activity against Penicillium chrysogenum MTCC 161 at 100 ug/ml after 18 hr by cup-plate method
Assay type: functional
Conditions Used: MTCC 161, 18 h, read-out: DIZ
Collected zone of inhibition at 100 µg/mL values appear next to each entry.
Measured Quantity: zone of inhibition at 100 µg/mL (mm)

Molecule: Cc1cc(/N=C/c2cccc3ccccc23)no1
Measured Number: 15

Molecule: O=c1c(/C=N/c2nc[nH]n2)coc2ccccc12
Measured Number: 15

Molecule: O=c1c(/C=N/c2ccc(Cl)cc2)coc2ccccc12
Measured Number: 15

Molecule: C(=N/c1nc[nH]n1)/c1cccc2ccccc12
Measured Number: 17

Molecule: OC(Cn1cncn1)(Cn1cncn1)c1ccc(F)cc1F [FLUCONAZOLE]
Measured Number: 16

Molecule: C(=N\c1nc[nH]n1)/c1ccco1
Measured Number: 11

Molecule: Cc1cccnc1/N=C/c1cccc2ccccc12
Measured Number: 11

Molecule: C(=N\c1nc[nH]n1)/c1cccs1
Measured Number: 13

Molecule: Clc1ccc(/N=C/c2cccs2)cc1
Measured Number: 13

====

System: Pseudomonas aeruginosa
Protocol Details: Antibacterial activity against Pseudomonas aeruginosa MTCC 424 at 200 ug/ml after 18 hr by cup-plate method
Assay type: functional
Conditions Used: MTCC 424, 18 h, read-out: DIZ

Query Smiles: C(=N\c1nc[nH]n1)/c1ccco1
zone of inhibition at 200 µg/mL, mm: 11
--
Query Smiles: O=c1c(/C=N/c2ccc(Cl)cc2)coc2ccccc12
zone of inhibition at 200 µg/mL, mm: 18
--
Query Smiles: Clc1ccc(/N=C/c2cccs2)cc1
zone of inhibition at 200 µg/mL, mm: 13
--
Query Smiles: O=c1c(/C=N/c2nc[nH]n2)coc2ccccc12
zone of inhibition at 200 µg/mL, mm: 15
--
Query Smiles: C(=N\c1nc[nH]n1)/c1cccs1
zone of inhibition at 200 µg/mL, mm: 13
--
Query Smiles: C(=N/c1nc[nH]n1)/c1cccc2ccccc12
zone of inhibition at 200 µg/mL, mm: 18
--
Query Smiles: Cc1cc(/N=C/c2cccc3ccccc23)no1
zone of inhibition at 200 µg/mL, mm: 16
--
Query Smiles: Cc1cccnc1/N=C/c1cccc2ccccc12
zone of inhibition at 200 µg/mL, mm: 13

====

Test system: Aspergillus niger
Protocol Details: Antifungal activity against Aspergillus niger MTCC 2546 at 500 ug/ml after 18 hr by cup-plate method
Assay type: functional
Conditions Used: MTCC 2546, 18 h, read-out: DIZ
# key: entry, value: zone of inhibition at 500 µg/mL

Query Smiles: Clc1ccc(/N=C/c2cccs2)cc1
Test System: Aspergillus niger
Reading Unit: mm
zone of inhibition at 500 µg/mL: 12
//
Query Smiles: Cc1cc(/N=C/c2cccc3ccccc23)no1
Test System: Aspergillus niger
Reading Unit: mm
zone of inhibition at 500 µg/mL: 19
//
Query Smiles: Clc1ccc(/N=C\c2cccc3ccccc23)cc1
Test System: Aspergillus niger
Reading Unit: mm
zone of inhibition at 500 µg/mL: 11
//
Query Smiles: Cc1cccnc1/N=C/c1cccc2ccccc12
Test System: Aspergillus niger
Reading Unit: mm
zone of inhibition at 500 µg/mL: 19
//
Query Smiles: C(=N\c1nc[nH]n1)/c1cccs1
Test System: Aspergillus niger
Reading Unit: mm
zone of inhibition at 500 µg/mL: 15
//
Query Smiles: C(=N\c1ccccn1)/c1cccc2ccccc12
Test System: Aspergillus niger
Reading Unit: mm
zone of inhibition at 500 µg/mL: 12
//
Query Smiles: O=c1c(/C=N/c2ccc(Cl)cc2)coc2ccccc12
Test System: Aspergillus niger
Reading Unit: mm
zone of inhibition at 500 µg/mL: 19
//
Query Smiles: O=c1c(/C=N/c2nc[nH]n2)coc2ccccc12
Test System: Aspergillus niger
Reading Unit: mm
zone of inhibition at 500 µg/mL: 19
//
Query Smiles: C(=N/c1nc[nH]n1)/c1cccc2ccccc12
Test System: Aspergillus niger
Reading Unit: mm
zone of inhibition at 500 µg/mL: 18
//
Query Smiles: C(=N\c1nc[nH]n1)/c1ccco1
Test System: Aspergillus niger
Reading Unit: mm
zone of inhibition at 500 µg/mL: 18

====

Parameter zone of inhibition at 100 µg/mL: see the listing below.
Test system: Micrococcus luteus
Protocol Details: Antibacterial activity against Micrococcus luteus MTCC 1538 at 100 ug/ml after 18 hr by cup-plate method
Type: functional
Conditions Used: MTCC 1538, 18 h, read-out: DIZ

Query Smiles: Cc1cc(/N=C/c2cccc3ccccc23)no1
zone of inhibition at 100 µg/mL / mm: 16
--
Query Smiles: O=c1c(/C=N/c2ccc(Cl)cc2)coc2ccccc12
zone of inhibition at 100 µg/mL / mm: 16
--
Query Smiles: O=c1c(/C=N/c2nc[nH]n2)coc2ccccc12
zone of inhibition at 100 µg/mL / mm: 11
--
Query Smiles: C(=N\c1ccccn1)/c1cccc2ccccc12
zone of inhibition at 100 µg/mL / mm: 11
--
Query Smiles: C(=N\c1nc[nH]n1)/c1ccco1
zone of inhibition at 100 µg/mL / mm: 12
--
Query Smiles: C(=N\c1nc[nH]n1)/c1cccs1
zone of inhibition at 100 µg/mL / mm: 13
--
Query Smiles: Cc1cccnc1/N=C/c1cccc2ccccc12
zone of inhibition at 100 µg/mL / mm: 16

====

System: Pseudomonas fluorescens
Protocol Details: Antibacterial activity against Pseudomonas fluorescens MTCC 2421 at 100 ug/ml after 18 hr by cup-plate method
Type: functional
Conditions Used: MTCC 2421, 18 h, read-out: DIZ

Query Smiles: O=c1c(/C=N/c2ccc(Cl)cc2)coc2ccccc12
Reading Unit: mm
zone of inhibition at 100 µg/mL: 11
--
Query Smiles: Clc1ccc(/N=C/c2cccs2)cc1
Reading Unit: mm
zone of inhibition at 100 µg/mL: 11
--
Query Smiles: Cc1cccnc1/N=C/c1cccc2ccccc12
Reading Unit: mm
zone of inhibition at 100 µg/mL: 17
--
Query Smiles: C(=N/c1nc[nH]n1)/c1cccc2ccccc12
Reading Unit: mm
zone of inhibition at 100 µg/mL: 14
--
Query Smiles: Clc1ccc(/N=C\c2cccc3ccccc23)cc1
Reading Unit: mm
zone of inhibition at 100 µg/mL: 11
--
Query Smiles: C(=N\c1nc[nH]n1)/c1cccs1
Reading Unit: mm
zone of inhibition at 100 µg/mL: 11
--
Query Smiles: Cc1cc(/N=C/c2cccc3ccccc23)no1
Reading Unit: mm
zone of inhibition at 100 µg/mL: 11
--
Query Smiles: C(=N\c1nc[nH]n1)/c1ccco1
Reading Unit: mm
zone of inhibition at 100 µg/mL: 13
--
Query Smiles: O=c1c(/C=N/c2nc[nH]n2)coc2ccccc12
Reading Unit: mm
zone of inhibition at 100 µg/mL: 13
--
Query Smiles: C(=N\c1ccccn1)/c1cccc2ccccc12
Reading Unit: mm
zone of inhibition at 100 µg/mL: 11
--
Query Smiles: CCn1cc(C(=O)O)c(=O)c2cc(F)c(N3CCNCC3)cc21
Reading Unit: mm
zone of inhibition at 100 µg/mL: 25
